- measurementTarget: rat PTP1 (Rattus norvegicus)
- Construct: a C-terminal truncation of rat PTP1 (amino acid residues 1-322); GST (N, cleaved yes); made in house; host or cells: E. coli strain TG-1 (pGEX-2T)
- assayProcedure: PTP1 assay, pNPP hydrolysis (rate of change in A405)
- Assay type: biochemical
- reportedConditions: Conc 10 uM; pNPP hydrolysis; Table 2; read-out: PTP1 Inhib PTP1N. % Inhib
Threshold check on inhibition at 10 µM: at or above 40% gives T, strictly below gives F.

Q: Quick check: does CCCCCNC(=O)C(Cc1ccc(OC(COO)COO)cc1)NC(=O)C(Cc1ccc(OCc2c(Cl)cccc2Cl)cc1)NC(=O)OC(C)(C)C (stereo not shown) have inhibition at 10 µM greater than or equal to 40%?
A: F

Q: Ok, now CCCCCNC(=O)C(Cc1ccc(OC(COO)C(=O)O)cc1)NC(=O)NC(Cc1ccc(OCc2ccccc2)cc1)C(=O)O (stereo not shown)
A: T

Q: Ok, now CCCCCNC(=O)C(Cc1ccc(OC(COO)COO)cc1)NC(=O)C(Cc1ccc(OCc2c(Cl)cccc2Cl)cc1)NC(=O)CCC(=O)O (stereo not shown)
A: T

Q: Ok, now CCCCCNC(=O)C(Cc1ccc(OC(COO)COO)cc1)NC(=O)C(Cc1ccc(C(=O)c2ccccc2)cc1)NC(=O)OC(C)(C)C (stereo not shown)
A: T

Q: Ok, now CCCCCNC(=O)C(Cc1ccc(OC(COO)C(=O)O)cc1)NC(=O)NC(Cc1ccccc1)C(=O)O (stereo not shown)
A: T

Q: Ok, now CCCCCNC(=O)C(Cc1ccc(OC(COO)COO)cc1)NC(=O)C(Cc1ccc(OCc2ccccc2)cc1)N(C)C(=O)OC(C)(C)C (stereo not shown)
A: F

Q: Ok, now CC(C)CC(CO)NC(=O)C(Cc1ccc(OC(COO)COO)cc1)NC(=O)CCC(=O)O (stereo not shown)
A: F

----------
- measurementTarget: rat PTP1 (Rattus norvegicus, UniProt P20417)
- Construct: a C-terminal truncation of rat PTP1 (amino acid residues 1-322); GST (N, cleaved yes); made in house; host or cells: E. coli strain TG-1 (pGEX-2T)
- Sequence (P20417 1-322): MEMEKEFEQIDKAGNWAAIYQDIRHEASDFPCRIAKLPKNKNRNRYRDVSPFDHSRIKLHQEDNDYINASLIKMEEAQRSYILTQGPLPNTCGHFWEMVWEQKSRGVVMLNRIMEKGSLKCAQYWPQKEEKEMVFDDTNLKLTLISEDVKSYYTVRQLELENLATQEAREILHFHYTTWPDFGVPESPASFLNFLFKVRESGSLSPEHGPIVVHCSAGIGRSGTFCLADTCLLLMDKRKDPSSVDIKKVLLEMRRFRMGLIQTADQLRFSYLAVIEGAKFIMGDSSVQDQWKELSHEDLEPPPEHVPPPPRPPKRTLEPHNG
- assayProcedure: PTP1 assay, pNPP hydrolysis (rate of change in A405)
- Type: biochemical
- reportedConditions: inhibition of pNPP-hydrolysis; compound concentration 100 μM; read-out: % Inhibition
Would you mind telling me the reported inhibition at 100 µM of each entry?
I only need the number, in %, no unit after it.

Q: Which inhibition at 100 µM value belongs to `O=C(O)COc1ccc(C[C@H](NC(=O)c2ccoc2)C(=O)NCCCCc2ccc(Cl)cc2)cc1C(=O)O` ?
A: 97

Q: Ok, now `O=C(O)COc1ccc(C[C@H](NC(=O)c2ccoc2)C(=O)NCCCCc2ccccc2)cc1C(=O)O`
A: 97

Q: Ok, now `O=C(O)COc1ccc(C[C@H](NC(=O)c2ccccc2)C(=O)NCCCCc2ccc(Cl)cc2)cc1C(=O)O`
A: 98

Q: Ok, now `O=C(O)COc1ccc(C[C@H](NS(=O)(=O)/C=C/c2ccccc2)C(=O)NCCCCc2ccc(Cl)cc2)cc1C(=O)O`
A: 95

Q: Ok, now `O=C(O)COc1ccc(C[C@H](NC(=O)c2ccc(Cl)cc2)C(=O)NCCCCc2ccc(Cl)cc2)cc1C(=O)O`
A: 98

Q: Ok, now `O=C(O)COc1ccc(C[C@H](NC(=O)c2ccc(Cl)cc2)C(=O)NCCCCc2ccccc2)cc1C(=O)O`
A: 97

Q: Ok, now `CCCCCNC(=O)[C@H](Cc1ccc(OCC(=O)O)c(C(=O)O)c1)NC(=O)c1cnc(Cl)c(Cl)c1`
A: 95
